molecular target: Human immunodeficiency virus type 1 integrase (Human immunodeficiency virus 1, UniProt Q7ZJM1); test: Inhibition of HIV1 integrase 3'-end processing activity
Sequence (Q7ZJM1 whole entry): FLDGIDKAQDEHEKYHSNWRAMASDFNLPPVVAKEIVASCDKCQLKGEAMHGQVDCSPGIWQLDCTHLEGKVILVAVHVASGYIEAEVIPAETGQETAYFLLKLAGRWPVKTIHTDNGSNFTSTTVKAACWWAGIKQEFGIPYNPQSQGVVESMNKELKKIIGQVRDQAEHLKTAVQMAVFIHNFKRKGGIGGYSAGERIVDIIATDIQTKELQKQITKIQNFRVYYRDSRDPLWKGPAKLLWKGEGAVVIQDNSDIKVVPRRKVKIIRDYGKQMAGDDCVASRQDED
pIC50: −log10 of the molar value.
Property: pIC50; scope: individual compounds

Example entries begin here.
O=C(O)CSc1nc(-c2cccs2)cc(C(F)(F)F)n1: < 4.00
O=C(O)C1CCCCC1C(=O)Nc1ccc(Oc2cccc3ccccc23)cc1 (centres undefined): < 4.00
O=C(O)CSc1nc(Nc2ccccc2)nc(N2CCOCC2)n1: < 4.00

QUERY: Specify reported pIC50 for the compound shown: `O=C(O)CSc1nc(-c2ccccc2)cc(C(F)(F)F)n1`
RESULT: < 4.00

QUERY: # return recorded pIC50 for input O=C(O)C(O)C(O)c1nc2cc3ccccc3cc2[nH]1 (centres undefined)
RESULT: < 4.00

QUERY: Retrieve pIC50 measured for `CCOc1cc(CNc2nn[nH]n2)cc(Cl)c1OCc1ccc(Cl)cc1` and print it.
RESULT: < 4.00

QUERY: Answer with the recorded pIC50 for the compound listed here: `N#Cc1c(-c2ccc(Cl)cc2)cc(-c2ccccc2)nc1SCC(=O)O`
RESULT: 4.01

QUERY: Given `CCOc1cc(/C=C2\C(=O)N(c3nnn[nH]3)N=C2C)cc(Cl)c1OCC` , respond with its pIC50.
RESULT: 5.15

QUERY: For `COc1ccc(/C=C2\C(=O)N(c3nnn[nH]3)N=C2C)cc1OCc1ccccc1Cl` , write its pIC50.
RESULT: 4.85
